Provenance of the data: patent US11723897B2

test system: EFAD formation in RAW264.7 cells; assay: Inhibitor study: EFAD formation in RAW264.7 cells activated with Kdo2 and IFNγ; format: cell-based, murine; conditions: RAW264.7 + Kdo2 + IFNγ, 20 h; ↓ decrease, ↑ increase, NE (not defined in patent)
RECORDED_METRIC: Effect of inhibitor on EFAD-2 formation

CC(C)Cc1ccc(C(C)C(=O)O)cc1 (racemic) :: ↓
CCCCCC#CCC#CCC#CCC#CCCCC(=O)O :: ↓
CC(=O)Oc1ccccc1C(=O)O :: ↑
O=c1c(-c2ccc(O)cc2)coc2cc(O)cc(O)c12 :: ↓

**Q:** Record request: Effect of inhibitor on EFAD-2 formation value, item `COc1ccc2c(c1)c(CC(=O)O)c(C)n2C(=O)c1ccc(Cl)cc1`
**A:** ↓

**Q:** Data request, read-out Effect of inhibitor on EFAD-2 formation, for `O=C(O)Cc1ccccc1Nc1c(Cl)cccc1Cl`
**A:** ↓
